# protocolDetails: S6 kinase pathway phospho-S6 level changes – cell-based, A549, cytoblot, luminescence, serum-stimulated, primary screen (AID 1158);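 note: serum-stimulated A549 lung adenocarcinoma cells; signal is phosphorylated S6 detected by cytoblot immunostaining with HRP secondary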
# settings: 5 h, higher = more signal
endpoint: z-score
Kindly provide the number alone.

// query z-score value for entry C=C(CCCC)/C(=C/C[C@@H](OC(=O)c1ccncc1)c1ccccc1OCCO)c1cc(C(=O)OC)ccc1OC
0.761

Another compound: C=CCOC(=O)[C@@H]1[C@H]2C(=O)O[C@H](c3ccccc3)[C@H](c3ccccc3)N2[C@H](c2ccc(OCCOC(=O)[C@H]3C[C@H]4C(=O)N[C@@H](Cc5ccccc5)C(=O)N4[C@H]3c3cccc(OCCO)c3)cc2)[C@@]12C(=O)Nc1ccc(I)cc12
0.652

Same for COc1cc2c(cc1OC)CN(C(=O)[C@@H]1[C@H]3C(=O)O[C@H](c4ccccc4)[C@H](c4ccccc4)N3[C@H](c3ccc(O)cc3)[C@@]13C(=O)Nc1ccc(C#CCNC(N)=O)cc13)CC2
-0.419

And then CO[C@H]1O[C@H](CO)[C@@H](OC(=O)Nc2ccc(C(F)(F)F)cc2)[C@H](OC(=O)Nc2ccccc2)[C@H]1OC(=O)Nc1ccccc1 , what is it?
0.121

What would you report for Cc1ccc(N2C(=O)c3ccccc3[C@](C)(C(=O)NC(C)C)[C@@H]2c2ccc(CO)cc2)nc1 ?
0.274

Now give it for COC(=O)[C@@]1(Cc2ccc(OC)cc2)[C@H]2c3cc(C(=O)N(C)C)n(Cc4cc(C)n(C)n4)c3C[C@H]2CN1C(=O)c1ccccc1 too.
0.355

// repeat for C=C(/C(=C/C[C@@H](OC(C)=O)c1ccccc1OCCO)c1cnc2ccccc2c1)C(C)C and report
0.458

Would you mind doing O=C1O[C@H](c2ccccc2)[C@H](c2ccccc2)N2[C@H]1[C@@H](C(=O)N1CCCCCCC1)[C@]1(C(=O)Nc3ccccc31)[C@H]2c1ccc(O)cc1 as well?
-0.541
